Tested on: HL-60
Experiment: NCI tumour cell line growth inhibition, 48 h
Active and inactive are the calls of the source. Rule as the data show it: active = GI50 up to about 1.1 µM and inactive = higher.
Pick one: T for active, F for inactive

Completed entries (count: 8):
- Compound: "CCCCCCCCCCCCCCCCC1=CC(=O)C=C(OC)C1=O"
  Group Label: "F"
- Compound: "CC1=C(c2cc(C(=O)Nc3ccc(Cl)c(Cl)c3)nc(N)n2)Sc2ccccc2N1"
  Group Label: "F"
- Compound: "Cc1nc(C(=O)O)c2ccccc2n1"
  Group Label: "F"
- Compound: "Cc1c2ccc3ccccc3c2c[n+]2ccccc12"
  Group Label: "F"
- Compound: "CCN(CC)C1CC(O[C@H]2C[C@](O)(C(=O)CO)Cc3c(O)c4c(c(O)c32)C(=O)c2c(OC)cccc2C4=O)OC(C)C1O (stereo partly specified)"
  Group Label: "T"
- Compound: "ClCCCCCc1c2nc(c(CCCCCCl)c3ccc([nH]3)c(CCCCCCl)c3nc(c(CCCCCCl)c4ccc1[nH]4)C=C3)C=C2"
  Group Label: "F"
- Compound: "COc1ccc(C2=NNC(c3cc4cc(Br)ccc4nc3Cl)C2)cc1 (stereo unspecified)"
  Group Label: "F"
- Compound: "O=C(O)CCCc1ccc2c(c1)C(C(=O)O)CC2 (stereo unspecified)"
  Group Label: "F"

input: Record lookup: outcome of this test for CCC1C2Cc3ccc(O)cc3C1(CC)CCN2C (stereo unspecified) ?
output: F

input: Test call for this compound, please: O=C1OC(c2ccccc2)=NC1c1ccccc1 (stereo unspecified)
output: F

input: Name the outcome recorded for CC(=O)N1C(Nc2ccccn2)CCN1c1ccccc1 (stereo unspecified) in the assay.
output: F

###

Tested on: SN12C
Assay: NCI tumour cell line growth inhibition, 48 h
Calls of active or inactive are those of the source. No stated cut-off is given here; in the data, active = GI50 up to about 1.1 µM and inactive = higher.
Choose one outcome from this list and give only that: active, inactive

- Compound: "CC(C)=CCC/C(C)=C/Cc1c(O)ccc2c1[nH]c1cc(O)c(C)cc12"
  Group Label: "inactive"

input: Just curious, what result did CO/C1=C\C(C)=C\C(C)C(O)C(C)C/C(C)=C/C=C/C(OC)C(C(C)C(O)C(C)C2(O)CC(O)C(C)C(C(C)C)O2)OC1=O (stereo unspecified) get here?
output: active

input: Hi, sorry to bother you, what did the test record for COC(=O)[C@@]12C(=O)C=CC(=O)C1C1C(=CC2C)OC2OC3(CCCCC3)OC21 (stereo partly specified) ?
output: inactive

input: Name the outcome recorded for `Cc1ccc(/C=C2\Cc3cc(C)c(C)cc3C2=O)c(C(=O)O)c1` in the assay.
output: inactive

input: Dear colleague, could you share the recorded outcome for `O=C(CCc1cc(O)cc(O)c1)NCCc1cc(O)cc(O)c1` when you have a moment?
output: inactive

input: Called result for CC1=NOC(C)(O)/C1=N/O (stereo unspecified)
output: inactive

input: Called result for CCOC(=O)CCC(C(=O)OCC)n1nnc2ccc(Nc3c(C)[n+]([O-])c4cc(F)c(OCC)cc4[n+]3[O-])cc21 (stereo unspecified)
output: inactive

input: Just curious, what result did CC(C)c1cc2c(c(O)c1O)[C@@]1(C(=O)O)CCCC(C)(C)[C@@H]1CC2 [CARNOSIC ACID] get here?
output: inactive

input: GET /call?item= `Clc1cccc(-c2sc(-c3ccsc3)cc2Cc2ccsc2)c1` returns the recorded outcome of this test.
output: inactive

input: Please indicate how the test categorized NC(CCCCP(=O)(O)O)C(=O)O (stereo unspecified) .
output: inactive

input: Just curious, what result did `Cc1[nH]n(-c2ncc(C(=O)O)c(=O)[nH]2)c(=O)c1CCO` get here?
output: inactive

input: Could you please tell me the result logged for [O-][S+](Cc1cc2c(cc1Br)OCO2)c1ccccc1 (stereo unspecified) in this assay?
output: inactive

input: Please indicate how the test categorized `OCCNC1=Nc2ccc(Cl)cc2C(=S)N2CSC[C@@H]12` .
output: inactive

input: Tell me the recorded outcome of this test for `CC(C)Cn1cnc2c(Sc3c([N+](=O)[O-])ncn3C)nc(N)nc21` .
output: inactive

input: Record lookup: outcome of this test for `Cc1ccc(-n2cc(-c3ccc(Cl)cc3)c3c(N/N=C4\SCC(=O)N4C)ncnc32)cc1` ?
output: inactive

input: Answer briefly: the call reported for `c1ccc2c(c1)OCCOCCOc1ccccc1OCCO2` in this assay.
output: inactive

###

Tested on: OVCAR-3
Assay: NCI tumour cell line growth inhibition, 48 h
The source made the active and inactive calls. Rule as the data show it: active = GI50 up to about 1.1 µM and inactive = higher.
GI50 overview

input: Read the entry `CC1=C(c2cc(C(=O)Nc3ccc(Cl)c(Cl)c3)nc(N)n2)Sc2ccccc2N1` and write its reported GI50.
output: > 100 µM (inactive)

input: # return recorded GI50 for entry CC(=O)OC(CCC1(C)OC1COc1ccc(CCNC(=O)C=C(C)C)cc1)C(C)(C)OC(C)=O (configuration not stated)
output: 16.8 µM (inactive)

input: Provide only the value of recorded GI50 for `COc1cc(Cn2c3c(c4cc(O)ccc42)C(=O)c2ccccc2C3=O)cc(OC)c1`
output: 20.6 µM (inactive)

input: Tell me its GI50 given Cc1ccc(C2=Nc3c(N)nc(N)nc3NC(c3ccccc3)C2)cc1 (configuration not stated) as the entry.
output: 11.5 µM (inactive)

input: Provide only the value of recorded GI50 for `O=C1/C(=N/CCc2cc(Br)c(O)c(Br)c2)C=C(O)c2cccnc21`
output: 1.59 µM (inactive)

input: # return recorded GI50 for input COc1ccccc1NC1Oc2cc3c(cc2C(c2cc(OC)c(OC)c(OC)c2)C1C)OCO3 (configuration not stated)
output: 1.52 µM (inactive)

input: Look up and state reported GI50 for `Cc1ccc(-n2cc([Si](C)(C)C)nn2)s1`
output: > 100 µM (inactive)

input: Read the entry `Cc1nc(Nc2ccc(Cl)cc2)sc1C(=O)NNc1ccc([N+](=O)[O-])cc1[N+](=O)[O-]` and write its reported GI50.
output: 19.3 µM (inactive)

input: Give GI50 for COc1nc(NC2OCC(OC(C)=O)C(OC(C)=O)C2OC(C)=O)c(-c2csc(N)n2)c(=O)n1C (configuration not stated)
output: > 100 µM (inactive)

input: Read off the recorded GI50 for CCCCCCCC(=O)OCC1OC(n2cc(F)c(=O)[nH]c2=O)C(N)C(OC(=O)CCCCCCC)C1O (configuration not stated)
output: 20.8 µM (inactive)

###

System: A498
Experiment: NCI tumour cell line growth inhibition, 48 h
Calls of active or inactive are those of the source. Cut-off read from the data, not from the text of the source: active = GI50 up to about 1.1 µM and inactive = higher.
This section presents molecules with their documented GI50 values.

Study these solved cases before continuing.
- Molecule: "COc1ccc2c(c1)[nH]c1c(/C=C/c3ccccc3)nccc12"
  Tested System: "A498"
  Result: "12.3 µM (inactive)"
- Molecule: "[N-]=[N+]=Nc1ccc(CNc2cc(=O)[nH]c(=O)[nH]2)cc1"
  Tested System: "A498"
  Result: "> 100 µM (inactive)"
- Molecule: "c1ccc2c3ccn4ccc5c6ccccc6[nH]c5c4c-3nc2c1"
  Tested System: "A498"
  Result: "1.63 µM (inactive)"

input: Specify reported GI50 for the molecule shown: `Nn1c(-c2ccccc2Cl)nc2ccccc2c1=O`
output: > 100 µM (inactive)

input: Return GI50 for the following molecule: `CCOC(=O)C1(C(=O)OCC)COS(=O)OC1`
output: > 100 µM (inactive)

input: Query GI50 for `O=C(N/C=C1\C(=O)Oc2ccccc2C1=O)Oc1ccccc1`
output: 15.2 µM (inactive)

input: For `Cc1c2ccc3ccccc3c2c[n+]2ccccc12` , write its GI50.
output: > 47.5 µM (inactive)

input: # return recorded GI50 for input `C[n+]1c2ccccc2c(C(=O)Nc2ccc(S(=O)(=O)N=C(N)N)cc2)c2ccccc21`
output: > 100 µM (inactive)

input: Quote GI50 reported for `Cc1ccc(C(=O)CC(Cl)=C(Cl)Cl)cc1` please.
output: > 100 µM (inactive)

input: Give the reported GI50 for this molecule. `Cc1nc(Nc2ccc(Cl)cc2)sc1C(=O)NNc1ccc([N+](=O)[O-])cc1[N+](=O)[O-]`
output: 15.9 µM (inactive)

input: Answer with reported GI50 of CCOC(=O)C12CC1(C(=O)OCC)C1CCC2C1 (stereo unspecified)
output: > 100 µM (inactive)

###

Tested on: UACC-62
Assay: NCI tumour cell line growth inhibition, 48 h
Calls of active or inactive are those of the source. Rule as the data show it: active = GI50 up to about 1.1 µM and inactive = higher.
Use one of these outcomes when replying: True (active), False (inactive)

Some solved entries appear below for comparison.
- Compound: "Cc1ccc(-c2cc(-c3c(C)nn(C)c(=O)c3N)n[nH]2)cc1"
  Group Label: "False"
- Compound: "CCN(CC)C(=S)SS(C)(=O)=O"
  Group Label: "False"
- Compound: "CCCCCCCCCc1cccc(N2C(N)=NC(N)=NC2(C)C)c1"
  Group Label: "True"
- Compound: "CCc1nc(N)nc(N)c1-c1ccc([N+](C)(C)C)cc1"
  Group Label: "False"
- Compound: "CCN(CC)CCCC(C)Nc1c2cc(OC)cc(C)c2nc2c(C)c(Cl)ccc12 (stereo not given)"
  Group Label: "False"
- Compound: "CCN(CC)c1nc(N(C)C)c2ccc(OC)cc2n1"
  Group Label: "False"

input: Tell me the assay call for O=C1OC2(c3ccccc31)c1cc(I)c(O)c(I)c1Oc1c2cc(I)c(O)c1I [ERYTHROSINE] please.
output: False

input: // param item: `O=C1Nc2ccc(S(=O)(=O)NCCO)cc2/C1=C1/Nc2ccccc2C1=O` ; yields the recorded call
output: False

input: Could you please tell me the result logged for COC(=O)C1=C(C)N(NC(=O)c2ccccc2)C2(O)CCCC(=O)C12C (stereo not given) in this assay?
output: False

input: Which outcome did this test record for the compound `O=C(Nc1ccccc1)c1cc(S(=O)(=O)Nc2nc3cccnc3[nH]2)c(SSc2cc(Cl)c(C(=O)Nc3ccccc3)cc2S(=O)(=O)Nc2nc3cccnc3[nH]2)cc1Cl` ?
output: False
